biological target: T1, FX activation peptide 12-mer WKPYDAADLDPT (human); assay: peptide ELISA
T1 peptide: WKPYDAADLDPT-biotin
Ends that are not written are not given here.
measured attribute: ELISA signal relative to background
Returns: the value as a bare number; no unit string appended.

Nb 721E08 (VHH, monovalent Nanobody; not shown: C-terminal FLAG3 and HIS6 tag) VHH: EVQLVESGGGVVQPGGSLRLSCAASGRTFSTYSMGWFRQAPGKEREFVAAITRRGSRTYYADSVKGRFTISRDNSKNTVYLQMNSLRPEDTALYYCAADRRPADSYLDYWGQGTLVTVSS ... 1.83

Incoming: Param item = Nb 730C03 (VHH, monovalent Nanobody; also called Nb 730003; not shown: C-terminal FLAG3 and HIS6 tag) VHH: EVQLVESGGGVVQPGGSLRLSCVASGFTFSDYAMSWVRQAPGKGLEWVSGITSGSGRTYYADSVKGRFTISRDNSKNTVYLQMNSLRPEDTALYYCAAAILRGYRKTYDYWGQGTLVTVSS ; retrieve measured ELISA signal relative to background.
Outgoing: 1.14
